Assay: inhibitors of hydroxyurea-induced Chk1 phosphorylation, primary screen, imaging, HeLa, phospho-Chk1 antibody, percent positive cells (AID 1186)
Test context: hydroxyurea-induced phospho-Chk1 immunofluorescence imaging, higher = more signal
Lab note: anything with z-score at or over -0.5 counts as Y; the rest go in N.

Previously resolved entries follow.
O=C1c2ccccc2[C@@]2(Cc3ccccc3N(CC(F)(F)F)C2=O)[C@H](c2ccc(CO)cc2)N1Cc1ccccc1C(F)(F)F; N
C=C(COC)C(=O)CC[C@H](OC(=O)c1cccnc1)c1cccc(OCCO)c1; Y
CCN(CC)c1ccc(N2CC=CC34O[C@@H]5C=CCOC(=O)[C@@H]5[C@H]3C(=O)N(C(C)CO)[C@@H]4C2=O)cc1 (stereo partly specified); Y

Please indicate if the recorded z-score for "CC(C)(C)OC(=O)CC[C@]1(C(=O)NCc2ccccc2)N=C(c2ccc(OCCCO)cc2)O[C@H]1c1ccccc1N=[N+]=[N-]" meets or exceeds -0.5.
Y

Does the compound "C=CCC1(CC=C)C[C@H]2CO[C@H](c3ccc(OC)cc3)N2C1=O" have recorded z-score that is -0.5 or more?
Y

Does the compound "O=C(N1CCCCC1)[C@@]1(Cc2ccccc2)N=C(c2ccc(OCCCO)cc2)O[C@H]1c1ccccc1" have recorded z-score that is -0.5 or more?
N
